B1: POU domain, class 6, transcription factor 2, residues 609 to 663; numbered along this chain, P78424 (parent)
chain: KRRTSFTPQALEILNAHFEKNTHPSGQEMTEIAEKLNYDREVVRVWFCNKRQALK

# Variants of: B1
# measurement.notes: abundance fitness (aPCA) (normalised: wild type 0, dead -1); higher = more abundant; growth selection in yeast, the domain comes from the species named
# measurement.conditions: Homo sapiens
// Not met strictly below -0.03 in abundance fitness; Met otherwise

-- ask Hi, just wondering whether E12G shows abundance fitness of -0.03 or higher.
-- reply Not met

-- ask # iterate: R3S
-- reply Met

-- ask # iterate: H17M
-- reply Met

-- ask # iterate: G26I
-- reply Met

-- ask # iterate: L11E
-- reply Met

-- ask # iterate: E19I
-- reply Met

-- ask # iterate: V42P
-- reply Met

-- ask # iterate: Q52T
-- reply Not met

-- ask # iterate: A33C
-- reply Not met
